Below: a set of entries, each annotated with reported % Phosphatase Activity (compared to DMSO) PRL-2.
tested.on: recombinant PRL-2 (Homo sapiens)
Construct: 6xHis (N, cleaved yes); made in house; host or cells: E. coli One Shot BL21 Star
Sequence (Q12974 whole entry): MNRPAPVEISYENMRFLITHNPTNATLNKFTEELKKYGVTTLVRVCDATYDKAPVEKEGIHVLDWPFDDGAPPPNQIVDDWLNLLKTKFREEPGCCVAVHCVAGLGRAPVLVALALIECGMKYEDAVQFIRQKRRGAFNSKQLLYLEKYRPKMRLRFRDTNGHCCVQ
measurement.protocol: In vitro phosphatase assay (DiFMUP hydrolysis), PRL-2;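 further: PRL-2 activity read as DiFMUP hydrolysis after 20 min at room temperature with drug, enzyme first pre-reduced at 4 °C for 20 min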
Type: biochemical
test.conditions: FDA-approved drug screen; compared to DMSO
Where a name gives a salt, the structure may show the parent alone.
Unit % implied. Number only.

molecule: O=C1NCC2(CCN(CCc3ccccc3)CC2)O1 [Fenspiride HCl]
observed: 101

**Query** Looking for the measured % Phosphatase Activity (compared to DMSO) PRL-2 of CN(C)CCC=C1c2ccccc2CCc2ccccc21 [Amitriptyline HCl] , can you help?
**Result** 101

**Query** Continue with CO[C@H]1O[C@@H]2O[C@@]3(C)CC[C@H]4[C@H](C)CC[C@@H]([C@H]1C)[C@@]24OO3
**Result** 96

**Query** // repeat for COc1ccccc1N1CCN(CC(O)COc2cccc3ccccc23)CC1 (stereo not drawn) and report
**Result** 111
